Sourced from the nanobody polyreactivity screen of Harvey et al. (2022)

# measurementProtocol: yeast display, Sf9 membrane polyspecificity reagent, FACS + sequencing; frameworks hold sequencing errors
metricName: polyreactivity (PSR sort gate)

Examples with answers:
- inputSequence: "QVQLVESGGGLVQAGGSLRLSCAASGRIFFWNALGWYRQAPGKEREFVATISWNDAITYYADSVKGRFTISRDNAKNTVYLQMNSLKPEDTAVYYCNVDPKIVFSFGYDYWGQGTQVTVSS"
  polyreactivity (PSR sort gate): "low polyreactivity"
- inputSequence: "QVQLVESGGGLVQAGGSLRLSCAASGITFHGNTMGWYRQAPGKERELVAGISTSGSITYYADSVKGRFTISRDNAKKTVYLQMNSLKPEDTAVYYCAAVSHATQIAERGYWGQGTQVTVSS"
  polyreactivity (PSR sort gate): "low polyreactivity"
- inputSequence: "QVQQQESGGGLVQAGGSLRLSCAASGTIFQLTVMGRYRQASGKERELVASIDYGGNTNYADSVKGRFTISRDNAKNTVYLQMNSLKPEDTAVYYCEASSDSWTTHPYWGQGTQVTVSS"
  polyreactivity (PSR sort gate): "low polyreactivity"
- inputSequence: "QVQLVESGGGLVQAGGSLRLSCAASGRIFVSYAMGWYRQAPGKERELVADMSWSGSITYYADSVKGRFTISRDNAKNTVYLQMNSLKPEDTAVYYCAKKSIYDYSTTYPEYDYWGQGTQVTVSS"
  polyreactivity (PSR sort gate): "low polyreactivity"
- inputSequence: "QVQLVESGGGLVQAGGRLRLSCAASGIIFVYYAMGWYRQAPGKERELVADITRSGSSTYYADSVKGRFTISRDNAKNTVYLQMNSLKAEDTAVYFCAADNFYQAYGYWGQGTQVTVSS"
  polyreactivity (PSR sort gate): "low polyreactivity"

Ask: Would you mind telling me what polyreactivity (PSR sort gate) value was observed for "QVQLVESGGGLVQAGGSLRLSCAASGRTFGFNVMGWYRQAPGKERELVAAISWSGGSTYYADSVKGRFTISRDNAKNTVYLQMNSLKPEDTAVYYCNNRYVHRYGYWGQGTQVTVSS" ?
Reply: low polyreactivity

Ask: Moving on to "QVQLVESGGGLVQAGGSLRLSCAASGGTFQQNAMGWSRQAPGKERELVAAISWSDGSTYYADSVKGRFTISRDYATNTVYLQMNSLTPEDTAVYYCAADFTYYDSPYRDYNYESWGQGTQVTVSS"
Reply: low polyreactivity

Ask: Moving on to "QVQLVESAGGLVQAGGSLRLSCAASGYTSSLNAMGWYRQAPGKERELVARITTDGTSTYYADSVKGRFTISRDNAKNTVYLQMNSLKPEDTAVYYCNKRSHLYGNTPYYYWGQGTQVTVSS"
Reply: low polyreactivity

Ask: Moving on to "QVQLVESGGGLVQAGGSLRLSCAASGRTFRSYDMGWYRQAPGKERELVAAISKRGGNTYYADSVKGRFTISRDNAKNTVYLQMNSLKPEDTAVYYCAKRVSGSPPTAGSLSDSWGQGTQVTVSS"
Reply: high polyreactivity

Ask: Moving on to "QVQLVESGVGLVQAGGSLRLSCAASGLIFQGYAMGWYTQAPGKERELVAAITLSGGSTYYADSVKGRFTISRDNAKITDYLLMNSLKPEDTAVYYCNAYYPDEPSLYDYWGQGTQVTVSS"
Reply: low polyreactivity

Ask: Moving on to "QVQLVESGGGLVQAGGSLRLSCAASGSIFYYYAMGWYRQAPGKERELVAAITSGGRTKYADSVKGRFTISRDNAKNTVYLQMNSLKPEDTAVYYCATRAIWAYSTGYDYWGQGTQVTVSS"
Reply: high polyreactivity
